Just for reference, patent US9714243B2 is where these values come from.

For each of the molecules below, state its IC50.
- Tested on: HIV-1 (NL4-3 strain)
- assay text: Assay for inhibition of HIV replication (ViKinG; infected MT4-GFP cells)
- Assay type: cell-based
- conditions: MT4-GFP cells infected with HIV-1 NL4-3; 100% normal human serum (NHS); read-out: ViKinG IP (nM) with 100% NHS
Answer as a quantity: numeral, then unit.

Would you mind telling me what IC50 value was observed for CCN1C(=O)c2c(O)c(=O)c(-c3nnc(Cc4ccc(F)cc4F)s3)cn2N(C)C12CCC(OC(C)C)CC2 (stereo not shown) [Compound 63] ? 391 nM

Given the entry CN1C2C(O)CCCN2C(=O)c2c(O)c(=O)c(-c3nnc(Cc4ccc(F)cc4F)s3)cn21 (stereo not shown) [Compound 165] , report its measured IC50. 54 nM

Requested read-out: IC50. Entry: CCOC1CCC2(CC1)N(CC)C(=O)c1c(O)c(=O)c(C(=O)NCc3ccc(F)cc3F)cn1N2C (stereo not shown) [Compound 191] 239 nM

Value lookup for IC50; key = CCc1noc(C2CCC3(CC2)N(CC)C(=O)c2c(O)c(=O)c(-c4nnc(Cc5ccc(F)cc5F)s4)cn2N3C)n1 (stereo not shown) 228 nM

Field request: IC50 | item: CN1C(=O)c2c(O)c(=O)c(-c3nnc(Cc4ccc(F)cc4)s3)cn2N(C)C12CCC(O)CC2 (stereo not shown) [Compound 14] 198 nM

Which measured IC50 value corresponds to CN1C(=O)c2c(O)c(=O)c(-c3nnc(Cc4ccc(F)cc4F)s3)cn2N(C)C12CC[C@@H]1C[C@@]12CO (mixture of isomers) [Compound 200] ? 66.7 nM

What value of IC50 has been recorded for this entry: CN1C(=O)c2c(O)c(=O)c(-c3nnc(Cc4ccc(F)cc4F)s3)cn2N(C)C12CC[C@@H](C(=O)NC1CC1)C(C)(C)C2 (stereo partly shown) 817 nM

---

- Test system: HIV-1 (NL4-3 strain)
- assay text: Assay for inhibition of HIV replication (ViKinG; infected MT4-GFP cells)
- Type: cell-based
- conditions: MT4-GFP cells infected with HIV-1 NL4-3; 100% normal human serum (NHS); read-out: ViKinG IP (nM) with 100% NHS
I'd appreciate it if you could supply IC50 values for the items below.
Please respond with the number in nM and leave the unit unwritten.

For the molecule CCN1C(=O)c2c(O)c(=O)c(-c3nnc(Cc4ccc(F)cc4F)s3)cn2N(C)C12CCC(C(F)(F)F)CC2 (stereo not shown) [Compound 50] , what IC50 is on record? 5380

GET /values?readout=IC50&item= CCCOC1CCC2(CC1)N(CC)C(=O)c1c(O)c(=O)c(C(=O)NCc3ccc(F)cc3F)cn1N2C (stereo not shown) [Compound 193] 84.8

Entry CCCOC1CCC2(CC1)N(CC)C(=O)c1c(O)c(=O)c(C(=O)NCc3ccc(F)cc3F)cn1N2C (stereo not shown) [Compound 194] : reported IC50 = ? 400

# query: IC50 of entry CCN1C(=O)c2c(O)c(=O)c(-c3nnc(Cc4ccc(F)cc4F)s3)cn2N(C)C12CCC(c1nc(C)no1)CC2 (stereo not shown) [Compound 47] 186

Item under review: CN1C(=O)c2c(O)c(=O)c(-c3nnc(Cc4ccc(F)cc4F)s3)cn2N(C)C12CC[C@@H]1C[C@@]12CO (stereo partly shown) [Compound 195] . Reported IC50? 190

GET /values?readout=IC50&item= CCCOC1CCC2(CC1)N(CC)C(=O)c1c(O)c(=O)c(-c3nnc(Cc4ccc(F)cc4F)s3)cn1N2C (stereo not shown) [Compound 61] 221

Looking for the measured IC50 of CCN1C(=O)c2c(O)c(=O)c(-c3nnc(Cc4ccc(F)cc4F)s3)cn2N(C)C12CCC(OC)CC2 (stereo not shown) [Compound 27] , can you help? 191
